All figures here come from ChEMBL document CHEMBL4739717.

Molecular target: UniProt P49761
Sequence (P49761 whole entry): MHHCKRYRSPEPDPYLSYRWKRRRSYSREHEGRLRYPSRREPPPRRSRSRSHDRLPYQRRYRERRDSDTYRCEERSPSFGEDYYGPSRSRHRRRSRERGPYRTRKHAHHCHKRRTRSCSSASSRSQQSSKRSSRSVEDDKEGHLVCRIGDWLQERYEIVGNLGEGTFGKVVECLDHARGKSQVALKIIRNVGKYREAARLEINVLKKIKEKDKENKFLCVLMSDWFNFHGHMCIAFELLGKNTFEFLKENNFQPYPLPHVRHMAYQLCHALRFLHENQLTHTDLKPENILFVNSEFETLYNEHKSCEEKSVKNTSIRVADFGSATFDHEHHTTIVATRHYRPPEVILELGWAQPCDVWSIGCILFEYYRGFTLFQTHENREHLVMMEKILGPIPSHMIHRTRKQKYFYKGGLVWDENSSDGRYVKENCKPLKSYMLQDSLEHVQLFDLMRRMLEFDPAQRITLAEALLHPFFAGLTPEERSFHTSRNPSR
Assay: Inhibition of recombinant CLK3 (unknown origin) using Ser/Thr 18 peptide as substrate incubated for 1 hr in presence of ATP by FRET assay
outcome_measure: pEC50
Entry type: numeric. Quantity: pEC50, the -log10 of concentration in molar units.

>>> print(df.to_string())
                           molecular_string  target_or_system  observed_value
0  CCCC(=O)Nc1cncc(-c2cc3c(-c4nc5c(-c6ccsc6)cncc5[nH]4)n[nH]c3cn2)c1    UniProt P49761            7.68
1  CCCC(=O)Nc1cncc(-c2ccc3[nH]nc(-c4cc5c(-c6ccncc6)cncc5[nH]4)c3c2)c1    UniProt P49761            6.34

Record NC1CN(c2cncc(-c3ccc4[nH]nc(-c5nc6ccncc6[nH]5)c4c3)n2)C1 . Reported pEC50: 6.74

Record CN1CCN(c2nccc3[nH]c(-c4n[nH]c5ncc(-c6cncc(CN7CCCCC7)c6)cc45)cc23)CC1 . Reported pEC50: 5.72

Record CN1CCN(c2ccc(NC(=O)c3n[nH]c4ccc(-c5cncc(NC(=O)c6c(F)cccc6F)c5)cc34)cn2)CC1 . Reported pEC50: 7.09

---

Quick list: EC50 per entry.
Assay: Effect on Wnt signaling pathway in human SW480 cells harbouring TCF/LEF luciferase reporter gene and SP5-Luc reporter gene incubated for 36 to 48 hrs by luminescence assay
Type: cell-based

>>> df
                           molecular_string  outcome_measure  observed_value
0  CCC(=O)Nc1cncc(-c2ccc3[nH]nc(-c4nc5c(-c6cccc(F)c6)ccnc5[nH]4)c3n2)c1             EC50         > 10 µM
1  Nc1cncc(-c2cnc3[nH]nc(-c4cc5c(-c6ccncc6)nccc5[nH]4)c3c2)c1             EC50         > 10 µM
2  CN1CCN(c2nccc3[nH]c(-c4n[nH]c5ccc(-c6cncc(N)c6)nc45)nc23)CC1             EC50         > 10 µM
3  CN1CCN(c2ccnc3[nH]c(-c4n[nH]c5ccc(-c6cncc(N)c6)nc45)nc23)CC1             EC50         > 10 µM
4  FC1(F)CCN(Cc2cncc(-c3ccc4[nH]nc(-c5nc6c(-c7ccsc7)cncc6[nH]5)c4c3)c2)C1             EC50       0.0018 µM
5  Fc1cccc(-c2cccc3[nH]c(-c4n[nH]cc4/C=C/c4cncc(CN5CCCC5)c4)nc23)c1             EC50       0.0821 µM
6  O=C(Nc1cncc(-c2cnc3[nH]nc(-c4cc5c(-c6ccncc6)cncc5[nH]4)c3c2)c1)C1CCC1             EC50         > 10 µM

Please look at the following compound next.
Record c1cncc(-c2cncc3[nH]c(-c4n[nH]c5ncc(-c6cncnc6)cc45)cc23)c1 . Reported EC50: > 10 µM

---

Test: Effect on Wnt signaling pathway in human SW480 cells harbouring TCF/LEF luciferase reporter gene and SP5-Luc reporter gene incubated for 36 to 48 hrs by luminescence assay
Assay type: cell-based
Quick list: pEC50 per entry.
Entry type: numeric. Quantity: pEC50, the -log10 of concentration in molar units.

The following compounds have reported results that may help.
In [3]: df
Out[3]:
                           molecular_string  observed_value
0     CC#CC(=O)Nc1cc2cc(-c3cnn(C)c3)ccc2cn1            6.29
1  CC(C)C(=O)Nc1cncc(-c2ccc3[nH]nc(-c4cc5c(-c6cccnc6)cncc5[nH]4)c3c2)c1            6.59
2  Cc1ccncc1-c1cc2c(-c3nc4c(-c5cc(F)cc(CNS(C)(=O)=O)c5)ccnc4[nH]3)n[nH]c2cn1            6.96

Record Fc1ccc(-c2cncc3[nH]c(-c4n[nH]c5cnc(-c6cncc(CN7CCC(F)(F)C7)c6)cc45)cc23)cc1 . Reported pEC50: 5.49

Record c1ccc(CNCc2cncc(-c3ccc4[nH]nc(-c5cc6c(-c7cccs7)cncc6[nH]5)c4c3)c2)cc1 . Reported pEC50: 6.24

Record COc1cncc(-c2ccc3[nH]nc(-c4cc5c(-c6ccoc6)nccc5[nH]4)c3c2)c1 . Reported pEC50: 6.19

Record O=C(Nc1cncc(-c2ccc3[nH]nc(-c4cc5cnccc5[nH]4)c3c2)c1)C1CCC1 . Reported pEC50: 7.12

Record CC(C)CC(=O)Nc1cncc(-c2cc3c(-c4cc5c(-c6cccs6)nccc5[nH]4)n[nH]c3cn2)c1 . Reported pEC50: 6.24
